Biological target: serotonin receptors derived from rat hypothalamus
Assay: Saturation binding of S ligand to rat hypothalamus receptor (Scatchard)
Conditions: 50 mM Tris HCl, 37 °C, mean ± SD, n = 3, read-out: dissociation constant (Kd)
Where a name gives a salt, the structure may show the parent alone.
QUANTITY_MEASURED: Kd (nM)
Give bare numbers, in nM.

Write down Kd measured for item NCCc1c[nH]c2ccc(O)cc12 [S, serotonin hydrochloride]
0.11

====

Assay: 1H-NMR titration of template/functional monomer complexation
Format: binding
Details: S template, 1:1 complex, d6-DMSO, 25 °C; read-out: app. Kdiss with MAA, template's indolyl amino group
Where a name gives a salt, the structure may show the parent alone.
QUANTITY_MEASURED: pKd
Give bare numbers, as −log10 of the molar value.

Look up pKd of NCCc1c[nH]c2ccc(O)cc12 [S, serotonin hydrochloride] and report it.
3.04
